Measured GI50, listed per entry.
Test system: SN12C
Assay: NCI tumour cell line growth inhibition, 48 h
Activity calls are given as the source filed them. No stated cut-off is given here; in the data, active = GI50 up to about 1.1 µM and inactive = higher.

The following molecules have reported results that may help.
1. CCC1c2[nH]c3ccccc3c2C[C@H]2C(=O)NC(CCC(=O)OC(C)(C)C)C(=O)N12 (some centres undefined)    39.4 µM (inactive)
2. COc1ccc(C=O)c([N+](=O)[O-])c1    41.7 µM (inactive)
3. COc1cccc(-c2cc(=O)c3ccccc3o2)c1N    > 100 µM (inactive)
4. CC(=O)NNc1nc(C)c(C(=O)NNC(=O)C(=O)Nc2cccc(C(C)=O)c2)s1    15.9 µM (inactive)
5. Fc1ccc(C(=C2CCN(CCc3ccc4[nH]c(=S)[nH]c4c3)CC2)c2ccc(F)cc2)cc1    4.52 µM (inactive)
6. NCCS(=O)(=O)O [TAURINE]    > 100 µM (inactive)
7. COC1C(OC(C)=O)CC(=O)OC(C)C/C=C/C=C\C(O)C(C)CC(CC=O)C1OC1OC(C)C(OC2CC(C)(O)C(OC(=O)CC(C)C)C(C)O2)C(N(C)C)C1O (centres undefined)    > 100 µM (inactive)
8. COc1c(C)cc2c(C(C)C)c(O)c(O)c(C=O)c2c1O    27.7 µM (inactive)

The record that follows has no GI50 shown yet.
Identify the reported GI50 for the following entry. CCOC(=O)C1=C(C)C2C=C(c3cccs3)CC(c3ccc(Cl)cc3)=C2OC1=O (centres undefined)
44.3 µM (inactive)
